// reported GI50 for each item listed
# System: MDA-MB-435
# ASSAY REMARKS: NCI tumour cell line growth inhibition, 48 h
Activity calls are given as the source filed them. No stated cut-off is given here; in the data, active = GI50 up to about 1.1 µM and inactive = higher.

MOLECULE	GI50
N#Cc1ccc(Oc2nc3ccc(C(F)(F)F)cc3nc2-c2ccccc2)cc1	17.7 µM (inactive)
Oc1ccc2ccccc2c1Cc1c(O)ccc2ccccc12	11 µM (inactive)
CC1(C)CC(=O)C(=CNC(=O)c2ccncc2)C(=O)C1	> 100 µM (inactive)
O=C(O)CNCP(=O)(O)O [GLYPHOSATE]	> 100 µM (inactive)

###

# Test system: A498
# ASSAY REMARKS: NCI tumour cell line growth inhibition, 48 h
Activity calls are given as the source filed them. Rule as the data show it: active = GI50 up to about 1.1 µM and inactive = higher.
Labels: active, inactive

MOLECULE	ASSIGNED LABEL
CCOC(=O)/N=C(\N)SCc1ccccc1	inactive
COc1ccc2c(c1)CC[C@@H]1[C@@H]2CC[C@]2(C)/C(=N/OCCN3CCCC3)CC[C@@H]12	inactive
NS(=O)(=O)c1cc(Br)c(/N=N\c2ccc(O)c3ncccc23)c(Br)c1	inactive
CNC(=O)/C=C/C1=CN2C(=O)c3ccc(C)c(O)c3NC(OC)C2C1 (stereo not given)	active
S=C1SSC2N=CC=CC12 (stereo not given)	inactive
O=C1C(Cl)C(c2ccc(O)cc2)N1n1cnc2ccccc2c1=O (stereo not given)	inactive
C[C@]12CCC(=O)C=C1CC[C@@H]1C2CC[C@]2(C)Nc3[nH]ncc3CC12 (stereo not given in full)	inactive
CC1(c2ccc(Cl)cc2)N=C(NCCO)c2ccccc21 (stereo not given)	inactive
OC(Cc1ccccc1)(Cc1ccccc1)c1ccccc1	inactive
CCOC(=O)O/C(=C\c1ccc(OC)cc1)c1c(OC(=O)OCC)n(C(=O)OCC)c2ccccc12	inactive
C=CC[C@H]1O[Si](C(C)(C)C)(C(C)(C)C)[C@H](C)[C@H]1C	inactive
C=C(O)c1ccccc1C#Cc1ccccc1C(=O)OC	inactive
CCC1=C(C[C@H]2NCCc3cc(OC)c(OC)cc32)C[C@H]2c3cc(OC)c(OC)cc3CCN2C1	active
COC(=O)C1=C(\O)C[C@@]2(C)CC[C@@H](C(=O)OC)C2C/C=C\1C(=O)OC (stereo not given in full)	inactive
CC12CCCC(C#N)(C1)OC2=O (stereo not given)	inactive
